# System: ATS189
# ASSAY: qHTS profiling for inhibitors of Plasmodium falciparum proliferation (AID 504749); further: nearly all actives have a fitted effect of over 60% in size
# ASSAY_CONTEXT: P. falciparum in erythrocytes, SYBR Green DNA, 72 h; series mostly up to 28.7 µM
# Method: NIH National Institute of Allergy and Infectious Diseases [NIAID] NIH Chemical Genomics Center [NCGC] […] Because mature erythrocytes lack DNA, only Plasmodium-derived DNA is detected. NCGC Assay Protocol Summary: The SYBR Green viability assay was adapted from a method described previously (Plouffe et al., 2008). […] The following morning, fluorescence intensity at 485(14) nm excitation and 535(25) nm emission wavelengths was measured on an EnVision (Perkin Elmer) plate reader. […]
Inconclusive results are not listed. The source made the active and inactive calls. The call rests on the fitted dose curve; in most records, active means well fitted inhibition curve with a large enough effect; inconclusive means small, poorly fitted or top-dose-only effect; inactive means flat fitted curve, though single readings scatter.
Permitted responses: active, inactive

CN=C(N)NCCCC(N)C(=O)O (stereo not drawn) ... inactive
CN1C[C@H](C(=O)N[C@]2(C)O[C@@]3(O)C4CCCN4C(=O)[C@H](Cc4ccccc4)N3C2=O)C[C@@H]2c3cccc4[nH]cc(c34)C[C@H]21 (stereo partly drawn) ... active
CC(/C=C1\SC(=S)N(CC(=O)O)C1=O)=C\c1ccccc1 ... inactive
COc1cc2c(cc1OC)C(c1ccccc1)CN(C)CC2 (stereo not drawn) ... inactive

Tell me the recorded outcome of this test for CN1C(=O)CCC1c1cccnc1 (stereo not drawn) . inactive

Assay outcome for `COc1ccc(CCNC[C@@H](O)c2ccc(O)cc2)cc1OC` : what was it? inactive

Answer briefly: the call reported for CC(C)C[C@H]1C(=O)N2CCCC2[C@]2(O)O[C@](NC(=O)[C@@H]3C=C4c5cccc6[nH]c(Br)c(c56)C[C@H]4N(C)C3)(C(C)C)C(=O)N12 (stereo partly drawn) in this assay. active

Please let me know the test result on file for `C[C@@]12C(=O)OC(=O)[C@]1(C)[C@H]1CC[C@@H]2O1` . active

====

# MEASURED_ON: Calcium and integrin-binding protein 1 (Homo sapiens)
# ASSAY: Primary qHTS for Identification of Calcium Integrin Binding Protein 1 (CIB1) Competitor (AID 1508620);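 further: GST tagged CIB1 binding a fluorescein labelled alphaIIb integrin peptide tracer; top concentration of the series differs between compounds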
# ASSAY_CONTEXT: CIB1-GST / FITC-alphaIIb peptide fluorescence polarization; series mostly up to 114 µM
# Source text: Assay Provider: Ulhas P. Naik, PhD Sidney Kimmel Medical College Thomas Jefferson University, Philadelphia, PA Primary function of platelets is to maintain hemostasis. At the site of vascular injury, platelets adhere to adhesive proteins such as collagen and von Willebrand factor. […] PROTOCOL TABLES SEQUENCE No. (1, 2, 3, etc.); […] […] 7; ViewLux Fluorescent Polization Read: excitation = 480(20) / emission = 540(25) S and P; FITC Dichroic mirror.
Results filed as inconclusive are left out. Activity calls are given as the source filed them. Calls come from the whole dose curve; as a rule, active = well fitted inhibition curve with a large enough effect; inconclusive = small, poorly fitted or top-dose-only effect; inactive = flat fitted curve, though single readings scatter.
ENDPOINT_NAME: outcome

Before answering, review these 4 worked examples.
CC(=O)Nc1sc2c(c1-c1nc3ccccc3s1)CCN(C(C)C)C2 ... inactive
c1c[nH]c(C2CCN(c3ncc(-c4ccc5c(c4)OCCCO5)s3)CC2)n1 ... inactive
COc1ccnc(NCc2ccc(O)c3ncccc23)c1 ... inactive
CCOC(=O)C1CCN(C(=O)C(C)(C)NC(=O)Nc2ccc(N(C)C)cc2)CC1 ... inactive

Would you kindly look at the next entry?
Kindly note the recorded outcome for `Cc1ccc(S(=O)(=O)Nc2ccccc2C(=O)Nc2nc(-c3ccccc3)cs2)cc1` , which is inactive

Data origin: PubChem BioAssay (NCATS)
